Below: a set of entries, each annotated with reported TGI.
Test system: EKVX NSCLC
Assay Info: NCI tumour cell line growth inhibition, 48 h

Completed entries (count: 2):
compound=O=C(Oc1cccc(Cl)c1)c1cc2cc(CCl)ccc2oc1=O quantity=TGI result="> 100 µM"
compound="COC(=O)C(Cc1nc2ccccc2[nH]c1=O)C(=O)C(=O)Nc1cc(C(F)(F)F)ccc1Cl (stereo not drawn)" quantity=TGI result="39 µM"

Next, consider the following compound.
In: Form field: reported TGI of C[N+](C)([O-])CCCNc1ccnc2cccc([N+](=O)[O-])c12
Out: > 100 µM

###

Test system: IGROV1 ovarian
Assay Info: NCI tumour cell line growth inhibition, 48 h
// reported TGI for each item listed
Expressed in µM, but write only the number.

Example entries and their recorded answers appear below.
smi=Oc1ccc(Cl)cc1-c1cc(-c2ccc(F)cc2)n[nH]1 quantity_unit=µM recorded_number=8.44
smi=COc1ccc2c(c1)-c1[nH]c3ccccc3c1CC2 quantity_unit=µM recorded_number=18.8
smi=CCOc1cc(C(C)(C)C)ccc1C1=N[C@@](C)(c2ccc(Cl)cc2)[C@@](C)(c2ccc(Cl)cc2)N1C(=O)N1CCN(CCS(C)(=O)=O)CC1 quantity_unit=µM recorded_number=6.54

Now for the compound whose TGI we want.
In: For COc1ccc(C[C@@H]2OC3(C=CC(=O)C=C3)O[C@H]2Cc2ccc(OC)cc2)cc1 , what is its reported TGI?
Out: 1.16

###

System: NCI-H226 lung
Assay Info: NCI tumour cell line growth inhibition, 48 h
Quantity: GI50

smi=Cc1sc2ncn(Cc3ccc(Cl)c(Cl)c3)c(=O)c2c1C result="> 100 µM"
smi=CC(C)(C)C(=O)OCc1nc2cc3c(cc2c(=O)[nH]1)CCC3=O result="> 100 µM"
smi=COc1ccc2c(c1)CC[C@@H]1[C@@H]2CC[C@]2(C)C=C(/C=C/C(=O)c3ccccc3)C[C@@H]12 result="17.1 µM"
smi=O=C(CCl)Nc1cc(O)c2c(c1)C(=O)c1cccc(O)c1C2=O result="1.31 µM"
smi=N=C(N)c1ccc(-c2ccc(-c3ccc(F)cc3)s2)s1 result="14.2 µM"
smi=CC[C@H](NC(=O)[C@H](CS(=O)(=O)CC1CC1)N[C@@H](c1ccc(F)cc1)C(F)(F)F)C(=O)C(=O)NC1CC1 result="> 100 µM"
smi=c1ccc2nc(OCCN3CC3)ccc2c1 result="16.6 µM"
smi=O=C(CC(=O)c1ccccc1)c1ccccc1 result="37.2 µM"
smi=CN(C)CCNc1nc2ccccc2c2c(=O)c3ccccc3sc12 result="1.77 µM"

In: # lookup: GI50 of O=C1c2ccn(CCCCN3CCC(O)CC3)c2C(=O)c2c1c(O)c1ccccc1c2O
Out: 23.7 µM

###

Tested on: SW-620 colon
Assay Info: NCI tumour cell line growth inhibition, 48 h
Quantity: TGI

Below, each entry is followed by its recorded TGI result.
compound=COc1cc(C=O)cc(C=Nc2ccc(S(N)(=O)=O)cc2)c1O result="> 100 µM"
compound=O=C(CC(=O)c1ccccc1)c1ccccc1 result="> 100 µM"
compound=C=CC1(c2ccc(OC)cc2)OCCCO1 result="> 100 µM"
compound=Cc1cc(O)c(C(C)C)cc1N=Cc1ccccc1O result="> 20.4 µM"
compound=c1ccc2nc(OCCN3CC3)ccc2c1 result="5.43 µM"
compound=CCCn1c(N)c(C(=O)CNc2ccc(I)cc2)c(=O)[nH]c1=O result="> 100 µM"

In: Please look up its TGI: COc1ccc(C(=O)O/N=C2/CCC/C2=C\c2ccccc2)cc1
Out: > 100 µM

In: Please give the measured TGI for this compound: C=CCC(CNC(=O)OCc1ccccc1)OC(=O)OCc1ccccc1 (configuration not stated)
Out: > 100 µM

In: Given COCCNC1CCC2(SCCS2)c2[nH]c3ccccc3c21 (configuration not stated) , state its recorded TGI.
Out: > 100 µM

In: Bench note: what TGI did COc1ccc(C2C(Cl)C(=O)N2NC(=O)Cc2ccccc2)cc1OC (configuration not stated) show?
Out: > 100 µM

In: Which TGI is reported for this compound? CCOP(=O)(OCC)C(Nc1ccc(F)cc1)c1ccccc1 (configuration not stated)
Out: > 100 µM

In: // returns reported TGI for input CN1CCN(CCOc2ccc(-c3cnc4c(-c5ccc(F)cc5)cnn4c3)cc2)CC1
Out: 3.56 µM

###

Test system: HS 578T breast
Assay Info: NCI tumour cell line growth inhibition, 48 h
Quantity: TGI

compound=Cc1cc(O)cc2c1c(=O)c1ccccc1n2C quantity=TGI result="> 100 µM"
compound=COc1ccccc1NS(=O)(=O)c1ccc2ncn(NS(=O)(=O)c3ccc(Cl)cc3)c(=O)c2c1 quantity=TGI result="> 100 µM"
compound="C=CCC(CNC(=O)OCc1ccccc1)OC(=O)OCc1ccccc1 (stereo unspecified)" quantity=TGI result="> 100 µM"
compound=Oc1ccc(Cl)cc1-c1cc(-c2ccc(F)cc2)n[nH]1 quantity=TGI result="6.65 µM"
compound=C#CCN(Cc1nc2cc(C(F)(F)F)ccc2nc1-c1ccccc1)c1ccc(F)c(F)c1 quantity=TGI result="> 100 µM"

In: Can you look up the measured TGI of OC(c1ccccc1)(c1cccnc1)C(O)(c1ccccc1)c1cccnc1 (stereo unspecified) for me?
Out: > 100 µM

In: For O=c1c2c3c(sc2n2c(-c4ccc(Br)cc4)nnc2n1Cc1ccccc1)CCCC3 , what is its reported TGI?
Out: 36.6 µM

###

Below, each entry is listed alongside its reported GI50.
Tested on: OVCAR-5 ovarian
Assay Info: NCI tumour cell line growth inhibition, 48 h

Field: example entries. Status: answers known.
smi=CCOC(=S)SCN1C(=O)c2ccccc2S1(=O)=O result="14.5 µM"
smi=COC(=O)[C@]12CC[C@@H](C)[C@H](C)[C@@H]1C1=CC[C@@H]3[C@@]4(C)CC(=O)[C@H](OC(=O)c5ccco5)[C@@]5(C)COC(=C45)C[C@@]3(C)[C@]1(C)CC2 result="> 100 µM"

Continue with the compound presented below.
In: What does the data say about its GI50? Entry: O=[N+]([O-])c1cc(F)c2cccnc2c1O
Out: 35.8 µM

###

System: IGROV1 ovarian
Assay Info: NCI tumour cell line growth inhibition, 48 h
Quantity: TGI (µM)
Report the figure in µM without appending any unit label.

Study these solved cases before continuing.
molecule=C#Cc1cc2c(N)c(C(=O)c3cc(OC)c(OC)c(OC)c3)[nH]c2cc1OC quantity=TGI recorded_number=74.9
molecule=Cn1cc(NC(=O)c2cc(NC(=O)CCCCCCC(=O)Nc3cc(C(=O)Nc4cc(C(=O)NCCC(=N)N)n(C)c4)n(C)c3)cn2C)cc1C(=O)NCCC(=N)N quantity=TGI recorded_number=12.8
molecule=CCCCNC(=S)Nc1nc(C(=O)NNC(=O)c2ccccc2)cs1 quantity=TGI recorded_number=40.6

In: Given CC[C@H](C)C1=C(OC(C)=O)[N@+]2([O-])Oc3ccc(-c4c(OC(C)=O)c(OC(C)=O)c(-c5ccc(OC(C)=O)cc5)c(OC(C)=O)c4OC(C)=O)cc3O[C@]2([C@@H](C)CC)C(=O)N1OC(C)=O , state its recorded TGI.
Out: 27.6

In: What value of TGI has been recorded for this entry: C=CC(Br)(CBr)CCC(Br)C(C)C (stereo not given)
Out: 11.1

In: Quick one: TGI for N=C(c1cccs1)C1(N2CCCCC2)CCCCC1 ?
Out: 39.6

In: Request the reported TGI associated with NS(=O)(=O)c1ccc(NC(=O)COC(=O)c2cccc3c(=O)c4ccccc4[nH]c23)cc1
Out: 61.5

In: What value of TGI has been reported for the following molecule? CCOC(=S)SCN1C(=O)c2ccccc2S1(=O)=O
Out: 52.4

###

Test system: SW-620 colon
Assay Info: NCI tumour cell line growth inhibition, 48 h; in the data active = GI50 below about 0.43 µM; inactive = the rest
Outcome (select one): active, inactive

Record excerpt, results attached:
molecule=Cc1ccc2c(c1)C(=O)c1c-2n(CCCN=[N+]=[N-])c(=O)c2cc([N+](=O)[O-])ccc12 cat=inactive
molecule=COc1ccc(NC(=O)/C=C(C)/C=C/C=C(C)\C=C\C2=C(C)CCCC2(C)C)cc1 cat=inactive
molecule=CCOC(=O)c1ccccc1-c1c2ccc(=[N+](C)C)cc-2oc2cc(N(C)C)ccc12 cat=active

In: Just curious, what result did CC(=O)C1(O)Cc2c(O)c3c(c(O)c2C(OC2CC(N)C(O)C(C)O2)C1)C(=O)c1ccccc1C3=O (stereo not drawn) get here?
Out: active

In: I would be grateful if you could indicate the recorded call for Cc1nnc(-c2ccc(-c3nc4ccccc4o3)cc2)o1 .
Out: inactive

###

Test system: 786-0 renal
Assay Info: NCI tumour cell line growth inhibition, 48 h
Quantity: TGI (µM)
Write the value in µM as a bare number.

Reference set (4 entries):
compound=CN(C)CCNc1nc2ccccc2c2c(=O)c3ccccc3sc12 recorded_number=2.98
compound=CN(C)CCNc1nc(-c2cccs2)cc(-c2cccs2)n1 recorded_number=30.4
compound=O=C1c2ccn(CCCCN3CCC(O)CC3)c2C(=O)c2c1c(O)c1ccccc1c2O recorded_number=31.1
compound=O=C(CCl)Nc1cc(O)c2c(c1)C(=O)c1cccc(O)c1C2=O recorded_number=4.16

In: I have this compound here, COc1ccc(C[C@@H]2OC3(C=CC(=O)C=C3)O[C@H]2Cc2ccc(OC)cc2)cc1 , and I need its recorded TGI.
Out: 0.412

In: Find the recorded TGI belonging to CCN1CCNc2c3cc(OC)ccc3nc3c([N+](=O)[O-])ccc1c23 and report it.
Out: 9.61

In: Entry O=C1c2cc([N+](=O)[O-])sc2C(=O)c2ccsc21 has what TGI?
Out: 0.948

In: So what does the record say about TGI for Nc1c(C(=O)Nc2cccc(Br)c2)sc2nc3c(cc12)C(O)CCC3 (stereo unspecified) ?
Out: 36.1

In: Find the recorded TGI belonging to CC(C)N(C(C)C)P(OCCC#N)OC1CC(n2cnc3c(=O)[nH]cnc32)OC1COC(=O)NCCCCCCNC(=O)OC(C)(C)c1ccc(-c2ccccc2)cc1 (stereo unspecified) and report it.
Out: 54.7
